Assay: qHTS assay to identify small molecule antagonists of the retinoic acid receptor (RAR) signaling pathway (AID 1159552; also: nearly all actives have a fitted effect of over 50% in size; also: potency is read from the fitted curve at half-maximal effect)
Conditions: C3RL4 RARE luciferase reporter, retinol-stimulated, 6 h; series mostly up to 92.4 µM
From the text: National Center for Advancing Translational Sciences [NCATS] NIH Chemical Genomics Center [NCGC] U.S. Environmental Protection Agency [EPA] National Institutes of Environmental Health Sciences [NIEHS] National Toxicology Program [NTP] U.S. Food and Drug Administration [FDA] […]
Records with an inconclusive call do not appear. Calls of active or inactive are those of the source. Calls follow the shape of the dose curve; as a rule, active = well fitted inhibition curve with a large enough effect in the repeat runs; inconclusive = weak or mixed curves, or effect the other way; inactive = no such curve, though single readings can be large or run the other way.
measured-endpoint: Potency

molecule | measured-endpoint | endpoint-result
Cc1cccc(C)c1NC(=O)CN1CCN(CCCC(c2ccc(F)cc2)c2ccc(F)cc2)CC1 | Potency | 26.6 µM (active)
C[C@@H]1CC[C@H]2C(C)(C)[C@H]3C[C@@]12CC[C@@]3(C)O | Potency | inactive
COc1ccc(-n2nc(CCC(=O)N(C)O)cc2-c2ccc(Cl)cc2)cc1 | Potency | inactive
Cc1c(C)n(Cc2ccccc2)c2ccc(C(=O)OCCN(C)C)cc12 | Potency | inactive
CCCCCCCCCCCCCOP(=O)(O)O | Potency | inactive
CC(=O)C=O | Potency | inactive
Clc1ccc(C(c2ccccc2Cl)C(Cl)Cl)cc1 (centres undefined) | Potency | 54.5 µM (active)
CC1(C)C(=O)N(Br)C(=O)N1Br | Potency | inactive
CCC1CCCCC1 | Potency | inactive
SCCCCCCCCS | Potency | inactive
COc1cccc(O)c1 | Potency | inactive
C=CC(C)(CCC=C(C)C)OC(=O)/C=C/c1ccccc1 (centres undefined) | Potency | inactive
CCOC(OCC)C(=O)c1ccccc1 | Potency | inactive
CCN=C1C=CC(=C(c2ccc(N(CC)CC)cc2)c2ccc(N(CC)CC)cc2)c2ccccc21 | Potency | 4.83 µM (active)
CC1=C(/C=C/C(C)=C/C=C/C(C)=C\C=O)C(C)(C)CCC1 | Potency | inactive
C[C@H]1O[C@@H](O[C@H]2[C@@H](O)C[C@H](O[C@H]3[C@@H](O)C[C@H](O[C@H]4CC[C@@]5(C)[C@H](CC[C@@H]6[C@@H]5C[C@@H](O)[C@]5(C)[C@@H](C7=CC(=O)OC7)CC[C@]65O)C4)O[C@@H]3C)O[C@@H]2C)C[C@H](O)[C@@H]1O | Potency | inactive
CC1=CCC(=O)O1 | Potency | inactive
CCCOc1sc(C(=O)N2CCC(c3cc(CN)ccc3F)CC2)c(C)c1Br | Potency | 39.7 µM (active)
C=CC/C=C/C/C=C/C/C=C/C | Potency | inactive
CC(C)=CCCC(C)O (centres undefined) | Potency | inactive
Cc1cc2c(C(C)C)c(O)c(O)c(C=O)c2c(O)c1-c1c(C)cc2c(C(C)C)c(O)c(O)c(C=O)c2c1O | Potency | inactive
CCC(C)c1cc([N+](=O)[O-])cc([N+](=O)[O-])c1OC(=O)OC(C)C (centres undefined) | Potency | 34.4 µM (active)
CCCCCCCCCCCC(=O)N(CC)CC | Potency | inactive
O=C(O)c1cccc(Cl)n1 | Potency | inactive

====

Experiment: A CellTox Green Cytotoxicity Assay to monitor cytotoxicity in HEK293 cells - 40 hour (AID 1224871); also: nearly all actives have a fitted effect of over 45% in size
Settings: CellTox Green fluorescence; series mostly up to 76.8 µM
Results filed as inconclusive are left out. Calls of active or inactive are those of the source. Calls follow the shape of the dose curve; as a rule, active = well fitted activation curve with a large enough effect in the repeat runs; inconclusive = weak or mixed curves; inactive = flat fitted curve, though single readings scatter.
Labels: TRUE for active, FALSE for inactive

compound | answer-label
Clc1ccc(C(c2ccccc2Cl)C(Cl)Cl)cc1 (stereo not given) | FALSE
COCC(=O)O[C@]1(CCN(C)CCCc2nc3ccccc3[nH]2)CCc2cc(F)ccc2[C@@H]1C(C)C | TRUE
C=C[C@](C)(O)CC[C@@H]1[C@@]2(C)CCCC(C)(C)[C@@H]2CC[C@@]1(C)O | TRUE
CCCCCCCCCCCCCCCC | FALSE
CCCCCCCCCCc1ccccc1 | FALSE
Cc1c(-c2ccc(O)cc2)n(Cc2ccc(OCCN3CCCCCC3)cc2)c2ccc(O)cc12 | TRUE
CCCN(CCc1cccs1)[C@H]1CCc2c(O)cccc2C1 | TRUE
CC(=O)c1ccccc1N | FALSE
CCCCN(C)C | FALSE
C[C@H]1O[C@@H](O[C@H]2[C@@H](O)C[C@H](O[C@H]3[C@@H](O)C[C@H](O[C@H]4CC[C@@]5(C)[C@H](CC[C@@H]6[C@@H]5C[C@@H](O)[C@]5(C)[C@@H](C7=CC(=O)OC7)CC[C@]65O)C4)O[C@@H]3C)O[C@@H]2C)C[C@H](O)[C@@H]1O | FALSE
